- testedSystem: T1, human CD24 (human, UniProt P25063 27-59, heavily glycosylated, GPI-anchored (as described in the background))
- T1 construct: whole, on cells; Target of all cell-based FACS assays; also called hCD24; Cluster of differentiation 24
- T1 chain (looked up): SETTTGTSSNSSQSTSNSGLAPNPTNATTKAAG
- experimentSummary: FACS, CHOK1-hCD24 cells
experimentalReadout: Max MFI
Answer field: number only, no words.

// query Quick check: Max MFI of 100F2E3 (antibody, V domains shown, mouse monoclonal antibody) VH: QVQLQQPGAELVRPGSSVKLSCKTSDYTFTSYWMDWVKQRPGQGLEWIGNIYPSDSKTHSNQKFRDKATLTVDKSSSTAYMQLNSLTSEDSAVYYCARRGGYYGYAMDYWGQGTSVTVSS VL: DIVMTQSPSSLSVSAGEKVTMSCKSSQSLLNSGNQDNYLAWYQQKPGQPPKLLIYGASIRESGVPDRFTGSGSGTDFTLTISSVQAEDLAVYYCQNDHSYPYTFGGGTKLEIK ?
// result 22300

// switching to the query binder
// query // returns reported Max MFI for input 110D4G4 (antibody, V domains shown, mouse monoclonal antibody; also called mAb-110D4G4) VH: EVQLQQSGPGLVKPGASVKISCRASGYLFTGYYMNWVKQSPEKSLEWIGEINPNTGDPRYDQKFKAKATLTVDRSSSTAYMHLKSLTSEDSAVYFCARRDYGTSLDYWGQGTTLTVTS VL: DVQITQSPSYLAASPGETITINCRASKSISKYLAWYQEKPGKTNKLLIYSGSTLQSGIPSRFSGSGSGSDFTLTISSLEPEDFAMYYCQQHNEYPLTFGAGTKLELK
// result 28900
